System: ARH-77 (Non-Cancerous)
Protocol: combination Emax (second highest fraction inhibited in the dose matrix, 72 h); higher = more inhibition; extreme values may be limits of the assay
Attribute measured: combination Emax
Form: value (number only, do not type unit).

Query block: Report combination Emax for Cc1c2c(nn1C)CSCc1cc(n(C)n1)CSc1cc(c3ccccc3c1)OCCCc1c(C(=O)O)n(C)c3c-2c(Cl)ccc13 [AZD5991] + CC1(C)CCC(CN2CCN(c3ccc(C(=O)NS(=O)(=O)c4ccc(NCC5CCOCC5)c([N+](=O)[O-])c4)c(Oc4cnc5[nH]ccc5c4)c3)CC2)=C(c2ccc(Cl)cc2)C1 [Venetoclax] (first compound max 1 µM, 7x7, partner max 1 µM) please.
Result block: 0.859

Query block: # iterate: CC1(C)CCC(CN2CCN(c3ccc(C(=O)NS(=O)(=O)c4ccc(NCC5CCOCC5)c([N+](=O)[O-])c4)c(Oc4cnc5[nH]ccc5c4)c3)CC2)=C(c2ccc(Cl)cc2)C1 [Venetoclax] + C=CCn1c(=O)c2cnc(Nc3ccc(N4CCN(C)CC4)cc3)nc2n1-c1cccc(C(C)(C)O)n1 [AZD1775] (first compound max 1 µM, partner max 1 µM)
Result block: 0.997

Query block: # iterate: Cc1cc2ncnn2cc1Nc1ncc2c(n1)n(C1CCOCC1)c(=O)n2C [AZD7648] + CN(C)CCCOc1ccc(-c2ccc3ncc4c(c3c2)n(C2CCOCC2)c(=O)n4C)cn1 [AZD0156] (first compound max 10 µM, 7x7, partner max 1 µM)
Result block: 0.54

Query block: # iterate: C[C@@H](c1ccc2nccn2c1)n1nnc2ncc(-c3cnn(C)c3)nc21 [Savolitinib] + CC1(C)CCC(CN2CCN(c3ccc(C(=O)NS(=O)(=O)c4ccc(NCC5CCOCC5)c([N+](=O)[O-])c4)c(Oc4cnc5[nH]ccc5c4)c3)CC2)=C(c2ccc(Cl)cc2)C1 [Venetoclax] (first compound max 1 µM, 7x7, partner max 1 µM)
Result block: 0.251

Query block: # iterate: COc1cc2ncnc(Nc3ccc(F)c(Cl)c3)c2cc1OCCCN1CCOCC1 [Gefitinib] + CC(C)n1c(=O)n(C)c2cnc3cc(F)c(-c4ccc(OCCCN5CCCCC5)nc4)cc3c21 [AZD1390] (first compound max 10 µM, 7x7, partner max 0.3 µM)
Result block: 0.272

Query block: # iterate: COc1nnc2ccc(N3CCC(c4ccc(OCCN5CCN(C)C(=O)[C@H]5C)cc4)CC3)nn12 [AZD5153] + CCN(CCO)CCCOc1ccc2c(Nc3cc(CC(=O)Nc4cccc(F)c4)[nH]n3)ncnc2c1 [AZD2811] (first compound max 1 µM, 7x7, partner max 1 µM)
Result block: 0.82

Query block: # iterate: NC1(C(=O)N[C@@H](CCO)c2ccc(Cl)cc2)CCN(c2ncnc3[nH]ccc23)CC1 [Capivasertib] + C[C@@H]1COCCN1C2=NC(=NC(=C2)C3(CC3)[S@](=N)(=O)C)C4=C5C=CNC5=NC=C4 [AZD6738] (first compound max 10 µM, 7x7, partner max 10 µM)
Result block: 0.927
